- Read-out: Collagen I, COL1A1 (gene 1277)
- MEASUREMENT PROTOCOL: BSK_MyoF_CollagenI: BioMAP Diversity Plus: MyoF Assay for Collagen I Biomarker Activity (AID 2284238)
- TEST CONTEXT: primary human lung fibroblasts
- Method: BSK_MyoF is a cell-based, multiplexed-readout assay that uses lung fibroblasts, […], with measurements taken at 24 hours after chemical dosing in a microplate: 96-well plate.BSK_MyoF_CollagenI is an assay component measured in the BSK_MyoF assay. […] The levels of cell surface (or secreted, indicated by the prefix "s") biomarker endpoints were measured by ELISA. […] Plates were read after 6 h.
Activity calls are given as the source filed them. Rule for the calls: active = hit-call score of the fitted dose curve at least 0.9, where 1 is the maximum; inactive = score below 0.9.
The categories you may choose from are active, inactive

COMPOUND: CCCCCCCCC(CO)CCCCCC (stereo not drawn)
CATEGORY: inactive

What outcome does the record of this test show for C=CC(=O)OCCCCCCOC(=O)C=C ?
active

Query O=C(Oc1ccccc1)c1ccccc1C(=O)Oc1ccccc1 next
inactive

###

- MEASUREMENT PROTOCOL: CEETOX_H295R_PROG: CeeTox H295R High-throughput Steroidogenesis Assay for Progesterone (PROG) (AID 2283442)
- TEST CONTEXT: actives raise or lower the signal
Calls of active or inactive are those of the source. Rule for the calls: active = hit-call score of the fitted dose curve at least 0.9, where 1 is the maximum; inactive = score below 0.9.
The categories you may choose from are active, inactive

COMPOUND: CN(C)c1ccc2nc3ccc(=[N+](C)C)cc-3sc2c1
CATEGORY: active

What outcome does the record of this test show for Cc1ccc([N+](=O)[O-])cc1N ?
active

Query CC(C)(C)NC(=O)[C@H]1CC[C@H]2[C@@H]3CC[C@H]4NC(=O)C=C[C@]4(C)[C@H]3CC[C@]12C next
active

Query C=CC(=O)OCCCCCCOC(=O)C=C next
inactive

Query COc1ccc(C(=O)c2ccccc2)c(O)c1 next
inactive

Query CCOC(=O)C1=NN(c2ccc(Cl)cc2Cl)C(C)(C(=O)OCC)C1 (stereo not drawn) next
inactive

Query CCN1CN(CC)CN(CC)C1 next
inactive

Query COc1ccc(-c2coc3cc(O)cc(O)c3c2=O)cc1 next
active

###

- TARGET ENTITY: Estrogen receptor (Homo sapiens) (UniProt P03372)
- Sequence (P03372 whole entry, looked up): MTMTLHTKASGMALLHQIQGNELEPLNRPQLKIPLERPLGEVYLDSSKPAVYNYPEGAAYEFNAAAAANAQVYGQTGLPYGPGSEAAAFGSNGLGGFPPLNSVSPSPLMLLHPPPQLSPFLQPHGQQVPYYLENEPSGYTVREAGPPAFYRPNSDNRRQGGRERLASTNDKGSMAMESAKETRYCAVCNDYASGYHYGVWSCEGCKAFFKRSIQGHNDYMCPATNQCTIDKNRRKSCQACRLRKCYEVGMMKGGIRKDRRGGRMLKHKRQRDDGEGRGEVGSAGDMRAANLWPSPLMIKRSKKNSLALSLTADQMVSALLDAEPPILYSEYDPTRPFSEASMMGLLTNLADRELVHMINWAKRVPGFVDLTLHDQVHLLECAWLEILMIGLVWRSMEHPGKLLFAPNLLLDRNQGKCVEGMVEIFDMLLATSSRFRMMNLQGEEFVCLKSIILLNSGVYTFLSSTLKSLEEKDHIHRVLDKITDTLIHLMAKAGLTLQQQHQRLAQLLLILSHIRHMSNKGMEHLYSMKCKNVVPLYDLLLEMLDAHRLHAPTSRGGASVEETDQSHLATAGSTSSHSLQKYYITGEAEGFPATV
- MEASUREMENT PROTOCOL: CCTE_Deisenroth_AIME_384WELL_LUC_Active: CCTE's 384-well Estrogen Receptor Transactivation Assay with AIME metabolic competence (ERTA luciferase; metabolism positive), Deisenroth Lab (AID 2284030)
- Protocol: CCTE_Deisenroth_AIME_384WELL (AIME metabolism assay) is a cell-based, single-readout assay that uses VM7Luc4E2, a human mammary gland/breast cell line, with measurements taken at 24 hour after chemical dosing in a 384-well plate.CCTE_Deisenroth_AIME_384WELL_LUC_Active is one of four assay components measured or calculated from the CCTE_Deisenroth_AIME_384WELL assay. […]
Records with an inconclusive call do not appear. Activity calls are given as the source filed them. The calls were made as follows: active = hit-call score of the fitted dose curve at least 0.9, where 1 is the maximum; inconclusive = response in the unintended direction; inactive = score below 0.9.
EXPERIMENTAL ENDPOINT: outcome

COMPOUND: CCC(C)(O)CCCC(C)C (stereo not drawn)
EXPERIMENTAL ENDPOINT: outcome
RESULT: inactive

COMPOUND: CCCCCCCCCCCCCCCCCCOS(=O)(=O)O
EXPERIMENTAL ENDPOINT: outcome
RESULT: inactive

COMPOUND: CC1(C)[C@@H]2CC[C@@]1(C)C(=O)C2
EXPERIMENTAL ENDPOINT: outcome
RESULT: inactive

###

- MEASUREMENT PROTOCOL: ACEA_ER_AUC_viability: ACEA Biosciences xCELLigence Real-Time Cell Analysis on Estrogen Receptor Agonism for Viability (AID 2283782);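 note: continuous compound exposure with impedance area under curve over 80 h; hit means loss of impedance signal meaning reduced cell growth or viability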
Inconclusive results are not listed. Activity calls are given as the source filed them. The calls were made as follows: active = hit-call score of the fitted dose curve at least 0.9, where 1 is the maximum; inconclusive = response in the unintended direction; inactive = score below 0.9.
The categories you may choose from are yes for active, no for inactive

COMPOUND: Cc1noc(NS(=O)(=O)c2ccc(N)cc2)c1C
CATEGORY: no

COMPOUND: CC1(C)C(=O)N(CO)C(=O)N1CO
CATEGORY: no

COMPOUND: CCOC(=O)[C@H](O)[C@@H](O)C(=O)OCC
CATEGORY: yes

COMPOUND: CC(C)(O)Cc1ccccc1
CATEGORY: yes

What outcome does the record of this test show for N#Cc1ccc(C(c2ccc(C#N)cc2)n2cncn2)cc1 ?
no

Query Nc1ccc(O)c([N+](=O)[O-])c1 next
yes

Query O=C1CCCCCCCCCCC1 next
no

###

- Read-out: Basic fibroblast growth factor (bFGF), FGF2 (gene 2247)
- MEASUREMENT PROTOCOL: BSK_MyoF_bFGF: BioMAP Diversity Plus: MyoF Assay for Basic fibroblast growth factor (bFGF) Biomarker Activity (AID 2284246)
- TEST CONTEXT: primary human lung fibroblasts
Calls of active or inactive are those of the source. Rule for the calls: active = hit-call score of the fitted dose curve at least 0.9, where 1 is the maximum; inactive = score below 0.9.
The categories you may choose from are active, inactive

Answered examples (4):
COMPOUND: CCCCCCCCC(CO)CCCCCC (stereo not given)
CATEGORY: inactive
--
COMPOUND: CCOC(=O)/C=C\C(=O)OCC
CATEGORY: inactive
--
COMPOUND: CCN1CN(CC)CN(CC)C1
CATEGORY: inactive
--
COMPOUND: CCNc1nc(NC(C)(C)C)nc(OC)n1
CATEGORY: inactive

What outcome does the record of this test show for CCCCCCOC(=O)CCCCC(=O)OCCCCCC ?
inactive

Query Fc1ccc(Br)cc1 next
inactive

Query C=CC(=O)OCC(C)OCC(C)OCC(C)OC(=O)C=C (stereo not given) next
active

Query CC/C=C\CCOC(=O)c1ccccc1O next
active

Query Oc1ccc(/C=C/c2cc(O)cc(O)c2)cc1 next
inactive

Query C=CC(=O)NCOCCCC next
inactive

Query CC/C=C\C/C=C\C/C=C\CCCCCCCC(=O)OC next
active

Query c1ccc2c(c1)[nH]c1ccccc12 next
inactive

Query CCCCCCC=O next
inactive

Query CCCCCCCO next
inactive

Query CC(C)[N+](C)(CCOC(=O)C1c2ccccc2Oc2ccccc21)C(C)C next
inactive

###

- TARGET ENTITY: Estrogen receptor (Homo sapiens) (UniProt P03372)
- MEASUREMENT PROTOCOL: OT_ERa_GFPERaERE_0480: Odyssey Thera (OT) 8-hour HeLa Transcription Induction Assay for Estrogen Receptor (AID 2283381)
- Procedure: OT_ERa_GFPERaERE_0480 is a cell-based, single-readout assay that uses HeLa, a human cervix cell line, with measurements taken at 8 hours after chemical dosing in a 384-well plate.OT_ERa_GFPERaERE_0480 is one of one assay component(s) measured or calculated from the OT_ERa_GFPERaERE_0480 assay. […] This assay endpoint, OT_ERa_EREGFP_0480, was analyzed in the positive analysis fitting direction relative to DMSO as the negative control and baseline of activity. […]
Calls of active or inactive are those of the source. Rule for the calls: active = hit-call score of the fitted dose curve at least 0.9, where 1 is the maximum; inactive = score below 0.9.
The categories you may choose from are active, inactive

Answered examples (3):
COMPOUND: CC1=CC=C(C(C)C)CC1
CATEGORY: active
--
COMPOUND: C/C=C/C=C/CCCCCCCO
CATEGORY: inactive
--
COMPOUND: O=C(OCCc1ccccc1)c1ccccc1
CATEGORY: inactive

What outcome does the record of this test show for COC(=O)c1ccccc1C ?
inactive

Query CCCCNC(=S)NCCCC next
inactive

Query CCCCNS(=O)(=O)c1ccccc1 next
inactive

###

- MEASUREMENT PROTOCOL: ATG_BRE_CIS: Attagene CIS-FACTORIAL HepG2 Assay for human Bone Morphogenetic Protein (BMP) Response Element (BRE) (AID 2282933)
- TEST CONTEXT: HepG2 BMP response element reporter, Attagene transcription factor profiling; actives raise or lower the signal
Active and inactive are the calls of the source. Rule for the calls: active = hit-call score of the fitted dose curve at least 0.9, where 1 is the maximum; inactive = score below 0.9.
EXPERIMENTAL ENDPOINT: outcome

Recorded results for 5 compounds are shown here.
COMPOUND: Nc1ccc(C(=O)O)cc1
outcome: inactive
--
COMPOUND: COc1cc(C)ccc1O
outcome: inactive
--
COMPOUND: CC(=O)OC(C)c1ccccc1 (stereo not given)
outcome: inactive
--
COMPOUND: [Cl][Eu]([Cl])[Cl]
outcome: inactive
--
COMPOUND: CCOC(=O)/C=C\C(=O)OCC
outcome: inactive

# outcome lookup, item CC1=CCC2CC1C2(C)C (stereo not given)
inactive

Query O=S(=O)(O)c1ccc(Nc2nc(Nc3ccc(C=Cc4ccc(Nc5nc(Nc6ccc(S(=O)(=O)O)cc6)nc(N(CCO)CCO)n5)cc4S(=O)(=O)O)c(S(=O)(=O)O)c3)nc(N(CCO)CCO)n2)cc1 next
inactive

###

- TARGET ENTITY: human Thyroid Receptor alpha (THRa1), THRA (gene 7067) (UniProt P10827)
- Sequence (P10827 whole entry, looked up): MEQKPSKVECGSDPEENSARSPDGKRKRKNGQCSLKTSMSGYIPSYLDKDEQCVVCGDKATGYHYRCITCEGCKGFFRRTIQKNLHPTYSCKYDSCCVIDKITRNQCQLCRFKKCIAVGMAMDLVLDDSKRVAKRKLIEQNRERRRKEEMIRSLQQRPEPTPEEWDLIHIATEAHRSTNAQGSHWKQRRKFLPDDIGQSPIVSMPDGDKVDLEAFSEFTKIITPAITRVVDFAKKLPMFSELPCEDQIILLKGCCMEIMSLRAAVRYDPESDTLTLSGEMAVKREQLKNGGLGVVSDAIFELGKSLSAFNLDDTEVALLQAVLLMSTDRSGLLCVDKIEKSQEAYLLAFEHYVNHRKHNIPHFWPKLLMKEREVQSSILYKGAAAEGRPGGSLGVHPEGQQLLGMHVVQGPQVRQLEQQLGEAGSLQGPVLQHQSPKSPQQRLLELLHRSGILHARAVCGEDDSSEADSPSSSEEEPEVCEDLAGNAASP
- MEASUREMENT PROTOCOL: ATG_THRa1_TRANS: Attagene TRANS-FACTORIAL HepG2 Assay for human Thyroid Receptor alpha (THRa1) (AID 2283014)
Results filed as inconclusive are left out. Activity calls are given as the source filed them. How the source made its calls: active means hit-call score of the fitted dose curve at least 0.9, where 1 is the maximum; inconclusive means response in the unintended direction; inactive means score below 0.9.
EXPERIMENTAL ENDPOINT: outcome

COMPOUND: CC(C)c1ccc2ncccc2c1
RESULT: inactive
//
COMPOUND: CCCCNS(=O)(=O)c1ccc(C)cc1
RESULT: inactive
//
COMPOUND: CCOC(=O)C1=NN(c2ccc(Cl)cc2Cl)C(C)(C(=O)OCC)C1 (centres undefined)
RESULT: inactive
//
COMPOUND: CCCCOCCOCCOC(C)=O
RESULT: inactive

Attribution: PubChem BioAssay (EPA / NIEHS)
